System: AGS human gastric adenocarcinoma cell strain
assay explanation: CCK-8 cytotoxicity IC50, AGS
experimental parameters: 72 h, read-out: cytotoxicity IC50
Quick rule for you: IC50 under 40 nM gets 1, anything else gets -1.

[
  {
    "chemical smiles": "CC(C)(C)c1nc[nH]c1/C=c1\\[nH]c(=O)/c(=C/C=C/c2cccc(F)c2)[nH]c1=O",
    "assigned label": -1
  },
  {
    "chemical smiles": "CC(C)(C)c1[nH]cnc1/C=c1\\[nH]c(=O)/c(=C/C=C/c2cc(F)ccc2Cl)[nH]c1=O",
    "assigned label": 1
  },
  {
    "chemical smiles": "CC(C)(C)c1[nH]cnc1/C=c1\\[nH]c(=O)/c(=C/C=C/c2ccc(OC(F)(F)F)cc2)[nH]c1=O",
    "assigned label": -1
  },
  {
    "chemical smiles": "COc1ccc(/C=C/C=c2\\[nH]c(=O)/c(=C/c3nc[nH]c3C(C)(C)C)[nH]c2=O)cc1",
    "assigned label": 1
  },
  {
    "chemical smiles": "CC(C)(C)c1[nH]cnc1/C=c1\\[nH]c(=O)/c(=C/C=C/c2cccc(C#N)c2)[nH]c1=O",
    "assigned label": -1
  }
]

###

System: MDA-MB-231 human breast cancer cell strain
pIC50: −log10 of the molar value.

[
  {
    "molecule": "C=CC(C)(C)c1[nH]cnc1/C=C1\\NC(=O)[C@H](Cc2ccccc2)NC1=O [(−)phenylahistin, reference compound]",
    "pIC50": "< 6.22"
  }
]

###

System: AGS human gastric adenocarcinoma cell strain
pIC50: −log10 of the molar value.
quantity kind: pIC50

[
  {
    "molecule": "C=CC(C)(C)c1[nH]cnc1/C=C1\\NC(=O)[C@H](Cc2ccccc2)NC1=O [(−)phenylahistin, reference compound]",
    "reported value": "< 6.22"
  }
]

###

System: HUVEC human umbilical vein endothelial cell strain

[
  {
    "compound": "C=CC(C)(C)c1[nH]cnc1/C=C1\\NC(=O)[C@H](Cc2ccccc2)NC1=O [(−)phenylahistin, reference compound]",
    "tested system": "HUVEC human umbilical vein endothelial cell strain",
    "IC50": "> 600 nM"
  }
]

###

assay explanation: CCK-8 cytotoxicity IC50, HUVEC
experimental parameters: human, HUVEC umbilical vein endothelial cells
log10 of IC50 at 72 h: recorded values
quantity kind: log10 of IC50 at 72 h (log10 of the value in nM)

[
  {
    "molecule": "CC(C)(C)c1[nH]cnc1/C=c1\\[nH]c(=O)/c(=C/C=C/c2ccc(OC(F)(F)F)cc2)[nH]c1=O [Compound 10]",
    "quantity kind": "log10 of IC50 at 72 h",
    "reported value": 2.56
  },
  {
    "molecule": "CC(C)(C)c1[nH]cnc1/C=c1\\[nH]c(=O)/c(=C/C=C/c2cc(F)ccc2Cl)[nH]c1=O [Compound 17]",
    "quantity kind": "log10 of IC50 at 72 h",
    "reported value": 1.54
  },
  {
    "molecule": "CC(C)(C)c1nc[nH]c1/C=c1\\[nH]c(=O)/c(=C/C=C/c2cccc(F)c2)[nH]c1=O [Compound 7]",
    "quantity kind": "log10 of IC50 at 72 h",
    "reported value": 1.98
  },
  {
    "molecule": "COc1ccc(/C=C/C=c2\\[nH]c(=O)/c(=C/c3nc[nH]c3C(C)(C)C)[nH]c2=O)cc1 [Compound 12]",
    "quantity kind": "log10 of IC50 at 72 h",
    "reported value": 1.63
  },
  {
    "molecule": "CC(C)(C)c1[nH]cnc1/C=c1\\[nH]c(=O)/c(=C/C=C/c2cccc(C#N)c2)[nH]c1=O [Compound 15]",
    "quantity kind": "log10 of IC50 at 72 h",
    "reported value": 1.90
  }
]
